Molecular target: HIV-1 nucleocapsid p7 (NC) (Human immunodeficiency virus type 1 …, UniProt P03347 P03347:378-432)
Test: filter; 10 mM NaOAc pH 5.3, 0.1 mM ZnCl2, 5 mM MgCl2, 100 mM NaCl, 37 C
Conditions: tags: processed NC, 55 aa, from pBH10, gift of Agouron Pharmaceutical; label: 5'-32P
Observation type: Kd

400-23 (ssRNA) RNA: GGGAGCUCAGAAUAAACGCUCAACUGAGAACUCUCCCGCUCGCAUUAUUAACCUUCGACAUGAGGCCCGGAUCCGGC = 6 nM

Turning now to a further record.
Task: Look up Kd: 400-17 (ssRNA) RNA: GGGAGCUCAGAAUAAACGCUCAAGUUCUGAGAACUCUCCCCAUUCUAGUGUGCUUCGACAUGAGGCCCGGAUCCGGC
Output: 2 nM

Data origin: patent US5635615
